biological target: NicR2; assay: ITC, […] HSP titrated into […] purified free NicR2; supported by EMSA
TEST READOUT: Kd (µM)
The response must be a number in µM with no trailing unit.

Give NicR2 Kd for the following compound: O=C(O)CCC(=O)c1ccc(O)nc1 [HSP, 6-hydroxy-3-succinoyl-pyridine]
4.95
